- assay-procedure: binding efficiency test, spiked water
- measurement-parameters: 0.50 g in 30.0 ml spike solution, approximately 1 mg/l of each element, 18 hrs, room temperature
Label criterion met when % Analyte Removed Co is strictly below 30%; otherwise label criterion not met.

> print(dat)
                                   compound  qualitative.label
1  O=C([O-])[O-].[La+3].[OH-] [A, lanthanum carbonate hydroxide]      criterion met
2  O=C([O-])[O-].[La+3].[La+3].[O-2].[O-2] [Compound B, anhydrous lanthanum oxycarbonate]  criterion not met
3  O.O.O.O.O=C([O-])[O-].O=C([O-])[O-].O=C([O-])[O-].[La+3].[La+3] [La2(CO3)3•4H2O, reference compound]      criterion met
4  [O]=[La][Cl] [LaOCl, lanthanum oxychloride]      criterion met
5  O=C([O-])[O-].O=C([O-])[O-].[Ti+4] [Ti(CO3)2, Ti carbonate]  criterion not met
6                              [O]=[Ti]=[O]      criterion met
7           [La+3].[La+3].[O-2].[O-2].[O-2]  criterion not met

====

- assay-procedure: binding efficiency test, spiked water
- measurement-parameters: 0.50 g in 30.0 ml spike solution, approximately 1 mg/l of each element, 18 hrs, room temperature
- Experimental: Tests were run to determine the binding efficiency of eight different compounds for twenty-four different elements. […] The compounds given in Table 6 were added to water and a spike and were vigorously shaken at room temperature for 18 hrs. The samples were filtered and the filtrate analyzed for a suite of elements including Sb, As, Be, Cd, Ca, Cr, Co, Cu, Fe, Pb, Mg, Mn, Mo, Ni, Se, Tl, Ti, V, Zn, Al, Ba, B, Ag, and P. […]
property-name: % Analyte Removed Mn (%)

> print(dat)
                                   molecule         property.name  unit.label  number
1  O=C([O-])[O-].[La+3].[OH-] [A, lanthanum carbonate hydroxide]  % Analyte Removed Mn           %      25
2  O.O.O.O.O=C([O-])[O-].O=C([O-])[O-].O=C([O-])[O-].[La+3].[La+3] [La2(CO3)3•4H2O, reference compound]  % Analyte Removed Mn           %      20
3  O=C([O-])[O-].[La+3].[La+3].[O-2].[O-2] [Compound B, anhydrous lanthanum oxycarbonate]  % Analyte Removed Mn           %      99
4  [O]=[La][Cl] [LaOCl, lanthanum oxychloride]  % Analyte Removed Mn           %      28

====

- assay-procedure: binding efficiency test, spiked water
- measurement-parameters: 0.50 g in 30.0 ml spike solution, approximately 1 mg/l of each element, 18 hrs, room temperature
A collection of compounds and their measured % Analyte Removed Ca
property-name: % Analyte Removed Ca (%)

> print(dat)
                                   compound  number
1  O.O.O.O.O=C([O-])[O-].O=C([O-])[O-].O=C([O-])[O-].[La+3].[La+3] [La2(CO3)3•4H2O, reference compound]      28
2                              [O]=[Ti]=[O]       0
3           [La+3].[La+3].[O-2].[O-2].[O-2]      21
4  O=C([O-])[O-].O=C([O-])[O-].[Ti+4] [Ti(CO3)2, Ti carbonate]      99
5  [O]=[La][Cl] [LaOCl, lanthanum oxychloride]       0
6  O=C([O-])[O-].[La+3].[La+3].[O-2].[O-2] [Compound B, anhydrous lanthanum oxycarbonate]      21
7  O=C([O-])[O-].[La+3].[OH-] [A, lanthanum carbonate hydroxide]      28

====

- assay-procedure: binding efficiency test, spiked water
- measurement-parameters: 0.50 g in 30.0 ml spike solution, approximately 1 mg/l of each element, 18 hrs, room temperature
Label T when % Analyte Removed Cd is strictly below 40%; otherwise label F.

> print(dat)
                                   compound  qualitative.label
1  [O]=[La][Cl] [LaOCl, lanthanum oxychloride]                  F
2  O=C([O-])[O-].[La+3].[La+3].[O-2].[O-2] [Compound B, anhydrous lanthanum oxycarbonate]                  F
3   [La+3].[La+3].[O-2].[O-2].[O-2] [La2O3]                  F
4  O=C([O-])[O-].O=C([O-])[O-].[Ti+4] [Ti(CO3)2, Ti carbonate]                  F
5  O=C([O-])[O-].[La+3].[OH-] [A, lanthanum carbonate hydroxide]                  T
6                       [O]=[Ti]=[O] [TiO2]                  T
7  O.O.O.O.O=C([O-])[O-].O=C([O-])[O-].O=C([O-])[O-].[La+3].[La+3] [La2(CO3)3•4H2O, reference compound]                  T

====

- assay-procedure: specific surface area by the BET method
- Type: physicochemical
A collection of compounds and their measured BET surface area
property-name: BET surface area (m^2/g)

> print(dat)
                                   compound  number
1  O=C([O-])[O-].[La+3].[OH-] [Sample 1, LaCO3OH]    41.3
2  O.O=C([O-])[O-].O=C([O-])[O-].O=C([O-])[O-].[La+3].[La+3] [Sample 10, La2(CO3)3•1H2O, reference compound]     2.9
3  O=C([O-])[O-].[La+3].[OH-] [Sample 3, LaCO3OH]    38.8
4  O=C([O-])[O-].[La+3].[La+3].[O-2].[O-2] [Sample 4, La2CO5]    25.6

====

- assay-procedure: binding efficiency test, spiked water
- measurement-parameters: 0.50 g in 30.0 ml spike solution, approximately 1 mg/l of each element, 18 hrs, room temperature
A collection of compounds and their measured % Analyte Removed As
property-name: % Analyte Removed As (%)

> print(dat)
                                   compound  number
1  O=C([O-])[O-].[La+3].[La+3].[O-2].[O-2] [Compound B, anhydrous lanthanum oxycarbonate]      92
2  [O]=[La][Cl] [LaOCl, lanthanum oxychloride]      76
3           [La+3].[La+3].[O-2].[O-2].[O-2]      85
4  O=C([O-])[O-].[La+3].[OH-] [A, lanthanum carbonate hydroxide]      29
5  O.O.O.O.O=C([O-])[O-].O=C([O-])[O-].O=C([O-])[O-].[La+3].[La+3] [La2(CO3)3•4H2O, reference compound]      25
6  O=C([O-])[O-].O=C([O-])[O-].[Ti+4] [Ti(CO3)2, Ti carbonate]      93
7                              [O]=[Ti]=[O]      93

====

A collection of compounds and their measured % Analyte Removed Cr
- assay-procedure: binding efficiency test, spiked water
- measurement-parameters: 0.50 g in 30.0 ml spike solution, approximately 1 mg/l of each element, 18 hrs, room temperature
- Experimental: Tests were run to determine the binding efficiency of eight different compounds for twenty-four different elements. […] The compounds given in Table 6 were added to water and a spike and were vigorously shaken at room temperature for 18 hrs. The samples were filtered and the filtrate analyzed for a suite of elements including Sb, As, Be, Cd, Ca, Cr, Co, Cu, Fe, Pb, Mg, Mn, Mo, Ni, Se, Tl, Ti, V, Zn, Al, Ba, B, Ag, and P. […]
property-name: % Analyte Removed Cr (%)

> print(dat)
                                   compound  number
1                              [O]=[Ti]=[O]       6
2  O=C([O-])[O-].[La+3].[OH-] [A, lanthanum carbonate hydroxide]     100
3  [O]=[La][Cl] [LaOCl, lanthanum oxychloride]     100
4  O.O.O.O.O=C([O-])[O-].O=C([O-])[O-].O=C([O-])[O-].[La+3].[La+3] [La2(CO3)3•4H2O, reference compound]      94
5           [La+3].[La+3].[O-2].[O-2].[O-2]     100
6  O=C([O-])[O-].[La+3].[La+3].[O-2].[O-2] [Compound B, anhydrous lanthanum oxycarbonate]     100
7  O=C([O-])[O-].O=C([O-])[O-].[Ti+4] [Ti(CO3)2, Ti carbonate]      99
